- test-system: T1, biotinylated hBLyS-ECD (human, UniProt Q9Y275 134-285, biotinylated with Biotin-X-X-NHS (molar ratio 7:1); sites not stated)
- T1 construct: also called biotinylated immunogen; biotinylated hBLvS-ECD
- T1 sequence (Q9Y275 134-285): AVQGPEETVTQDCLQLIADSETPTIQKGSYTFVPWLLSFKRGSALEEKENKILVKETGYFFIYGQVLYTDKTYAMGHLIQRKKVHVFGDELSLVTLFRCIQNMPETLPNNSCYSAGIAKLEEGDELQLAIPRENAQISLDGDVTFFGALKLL
- assay-overview: competition ELISA; competitor 111D10D6G3
endpoint-name: inhibitory rate (%)

93C6F10D3 (antibody, V domains shown, Mouse hybridoma antibody purified on Protein G) VH: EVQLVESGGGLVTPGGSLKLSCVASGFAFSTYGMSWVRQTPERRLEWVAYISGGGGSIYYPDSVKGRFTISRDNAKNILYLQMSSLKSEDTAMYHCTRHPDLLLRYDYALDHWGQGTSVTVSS VL: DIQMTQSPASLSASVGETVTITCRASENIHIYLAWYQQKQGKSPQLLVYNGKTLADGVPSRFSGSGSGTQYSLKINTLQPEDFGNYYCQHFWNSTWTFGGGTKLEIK = 95
35E6F7C3 (antibody, V domains shown, Mouse hybridoma antibody purified on Protein G) VH: EVQLQQSGAELVKPGASVKLSCTAAGFNIQDTYIHWVKQRPEQGLEWIGRIDPANANTVYDPKFQGKATITADTSSNTAYLQVSSLTSEDTAVYYCASPVITAGFAYWGQGTLVTVSA VL: QIVLTQSPAIMSASPGEKVTMTCGASSSVNYVHWYQQKSGTSPKRWIYDTSKLASGVPARFSGSGSGTSYSLTISSMEAEDAATYYCQQWTRSPLTFGAGTKVELK = 38
